Data origin, for the record: the supplement of paper PMC7877785

self-splicing fitness (ln) listing for selected sequences.
- ASSAY TEXT: self-splicing fitness, log relative to wild type (ln ratio); higher = more splicing; Tetrahymena group I intron in knt gene, E. coli kanamycin selection, DiMSum; sequences stand for … in CUCUCU…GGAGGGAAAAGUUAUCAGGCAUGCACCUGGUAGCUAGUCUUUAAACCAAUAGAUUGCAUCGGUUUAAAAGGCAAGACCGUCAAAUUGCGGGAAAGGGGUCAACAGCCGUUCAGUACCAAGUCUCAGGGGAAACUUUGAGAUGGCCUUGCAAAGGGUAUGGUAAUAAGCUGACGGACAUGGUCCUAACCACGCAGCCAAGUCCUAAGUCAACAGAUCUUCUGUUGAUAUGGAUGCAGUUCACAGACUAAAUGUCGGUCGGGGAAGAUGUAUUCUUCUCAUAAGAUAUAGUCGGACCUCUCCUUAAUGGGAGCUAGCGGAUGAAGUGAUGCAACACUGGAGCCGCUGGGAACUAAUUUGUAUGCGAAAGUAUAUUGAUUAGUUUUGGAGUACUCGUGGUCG;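 note: selection with 25 µg/mL kanamycin versus none on LB agar overnight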
- CONDITION: 30 °C

q: Which value of self-splicing fitness (ln) has been reported for GGGCAGCAAUAUUACGUGGU in the records?
a: -2.88

More entries:
q: Need self-splicing fitness (ln), item GAGGAGCAAUAUUACGUUGA
a: -3.73

q: AUAAAGCAAUAUUACGACUC , same question.
a: -0.219

q: Also check GCUCAGCAAUAUUACGUGGG
a: -3.65

q: And GACGAGCAAUAUUACGCGUG ?
a: -3.11

q: Would you mind doing ACAUAGCAAUAUUACGACAA as well?
a: -0.573

q: Another: AUUGAGCAAUAUUACGCCUU
a: -2.26

q: Also UCGAAGCAAUAUUACGGCAU , if possible.
a: -3.26

q: Please answer likewise for GGAAAGCAAUAUUACGGGGG
a: -3.94

q: Let us now turn to UGCGAGCAAUAUUACGGGUC
a: -4.21

q: Next: AUAGAGCAAUAUUACGGAAC
a: -3.66

q: Consider next the sequence AAAAAGCAAUAUUACGCGUC in the same way.
a: -2.31

q: Moving on to the next sequence: AACCAGCAAUAUUACGUUCU
a: -1.15

q: What do you have for GGUUAGCAAUAUUACGGAAU ?
a: -2.21

q: # repeat for CGAAAGCAAUAUUACGAGGG
a: -3.66

q: Request: GGAAAGCAAUAUUACGCUAG
a: -2.03

q: For GAUUAGCAAUAUUACGUAGU then?
a: -3.06

q: Quick one: CUAUAGCAAUAUUACGUCUG
a: 0.043

q: What about UCGAAGCAAUAUUACGAAGU ?
a: -4.55

q: Moving on to the next sequence: UGAUAGCAAUAUUACGAUGA
a: -0.925

q: Similarly, AAGAAGCAAUAUUACGUCGU ?
a: -1.31

q: What do we get for AAACAGCAAUAUUACGAGCC ?
a: -2.55

q: Okay, and CCUCAGCAAUAUUACGAUCG ?
a: -0.809
